system.name: Gag-Pol polyprotein (Human immunodeficiency virus type 2 subtype A (isolate ROD))
method: Ribonuclease H inhibitors of HIV-2 reverse transcriptase, biochemical dose response (AID 367)
measurement.setup: HIV-2 RNase H, FRET RNA/DNA substrate cleavage
Activity calls are given as the source filed them. How the calls were made is not given here.
Parameter call: string, one of active, inactive

compound | system.name | assigned.label
CC1=C(CCC(=O)O)c2cc3nc(cc4[nH]c(cc5[nH]c(cc1n2)c(C)c5C(C)O)c(C)c4C(C)O)C(C)=C3CCC(=O)O (stereo unspecified) | Gag-Pol polyprotein (Human immunodeficiency virus type 2 subtype A (isolate ROD)) | active
Cc1cc(I)c2c(c1)C1C=CCC1C(C(=O)O)N2 (stereo unspecified) | Gag-Pol polyprotein (Human immunodeficiency virus type 2 subtype A (isolate ROD)) | inactive
COc1cc(/C=N\c2sc3c(c2C(=O)NCc2ccccc2)CCCC3)cc(Cl)c1O | Gag-Pol polyprotein (Human immunodeficiency virus type 2 subtype A (isolate ROD)) | active
O=C1C=CC(=O)c2c(O)cccc21 | Gag-Pol polyprotein (Human immunodeficiency virus type 2 subtype A (isolate ROD)) | active
O=C1C(Cl)=C/C(=N\S(=O)(=O)c2ccccc2)C(Cl)=C1Cl | Gag-Pol polyprotein (Human immunodeficiency virus type 2 subtype A (isolate ROD)) | active

Task: Call for entry `O=C1c2ccc(O)cc2C(=O)c2c1ccc(O)c2O` :
Result: active

----------
Known IC50 of a selection of compounds
system.name: Gag-Pol polyprotein (Human immunodeficiency virus type 2 subtype A (isolate ROD))
method: Ribonuclease H inhibitors of HIV-2 reverse transcriptase, biochemical dose response (AID 367)
measurement.setup: HIV-2 RNase H, FRET RNA/DNA substrate cleavage
Activity calls are given as the source filed them. How the calls were made is not given here.

Reference set, count: 5
compound | system.name | measurement
Cc1ccc(S(=O)(=O)N=C2C=C(Cl)C(=O)C(Br)=C2)cc1 | Gag-Pol polyprotein (Human immunodeficiency virus type 2 subtype A (isolate ROD)) | 1800 nM
Ic1ccc2c(c1)N(c1ccccc1)c1cc(N=c3ccc4nc5ccc(I)cc5n(-c5ccccc5)c-4c3)ccc1N2 | Gag-Pol polyprotein (Human immunodeficiency virus type 2 subtype A (isolate ROD)) | 2000 nM
N#Cc1c(N)nc(SCC(=O)c2ccc(O)c(O)c2)c(C#N)c1-c1ccc(O)cc1 | Gag-Pol polyprotein (Human immunodeficiency virus type 2 subtype A (isolate ROD)) | 430 nM
CCCCCCCCCCCCCCCCCCOCC(O)CO (centres undefined) | Gag-Pol polyprotein (Human immunodeficiency virus type 2 subtype A (isolate ROD)) | > 100000 nM (inactive)
O=C1c2cc([N+](=O)[O-])ccc2-c2ccc3c4ccc5c6c(ccc(c7ccc1c2c73)c64)C(=O)c1cc([N+](=O)[O-])ccc1-5 | Gag-Pol polyprotein (Human immunodeficiency virus type 2 subtype A (isolate ROD)) | 4000 nM

So, `Cc1cc(Br)ccc1N1C(=O)/C(=C/c2ccco2)C(=O)NC1=S` ? Its IC50 was 4000 nM

So, `O=C1NC(=S)N(c2ccccc2F)C(=O)/C1=C/c1ccc(OCc2cccc(C(=O)O)c2)cc1` ? Its IC50 was 9000 nM

So, `COc1ccc(N2C(=O)/C(=C\c3cn(CC(=O)Nc4ccccc4)c4ccccc34)C(=O)NC2=S)cc1` ? Its IC50 was 2800 nM

----------
system.name: Gag-Pol polyprotein (Human immunodeficiency virus type 2 subtype A (isolate ROD)) (UniProt P04584)
Sequence (P04584 whole entry, looked up): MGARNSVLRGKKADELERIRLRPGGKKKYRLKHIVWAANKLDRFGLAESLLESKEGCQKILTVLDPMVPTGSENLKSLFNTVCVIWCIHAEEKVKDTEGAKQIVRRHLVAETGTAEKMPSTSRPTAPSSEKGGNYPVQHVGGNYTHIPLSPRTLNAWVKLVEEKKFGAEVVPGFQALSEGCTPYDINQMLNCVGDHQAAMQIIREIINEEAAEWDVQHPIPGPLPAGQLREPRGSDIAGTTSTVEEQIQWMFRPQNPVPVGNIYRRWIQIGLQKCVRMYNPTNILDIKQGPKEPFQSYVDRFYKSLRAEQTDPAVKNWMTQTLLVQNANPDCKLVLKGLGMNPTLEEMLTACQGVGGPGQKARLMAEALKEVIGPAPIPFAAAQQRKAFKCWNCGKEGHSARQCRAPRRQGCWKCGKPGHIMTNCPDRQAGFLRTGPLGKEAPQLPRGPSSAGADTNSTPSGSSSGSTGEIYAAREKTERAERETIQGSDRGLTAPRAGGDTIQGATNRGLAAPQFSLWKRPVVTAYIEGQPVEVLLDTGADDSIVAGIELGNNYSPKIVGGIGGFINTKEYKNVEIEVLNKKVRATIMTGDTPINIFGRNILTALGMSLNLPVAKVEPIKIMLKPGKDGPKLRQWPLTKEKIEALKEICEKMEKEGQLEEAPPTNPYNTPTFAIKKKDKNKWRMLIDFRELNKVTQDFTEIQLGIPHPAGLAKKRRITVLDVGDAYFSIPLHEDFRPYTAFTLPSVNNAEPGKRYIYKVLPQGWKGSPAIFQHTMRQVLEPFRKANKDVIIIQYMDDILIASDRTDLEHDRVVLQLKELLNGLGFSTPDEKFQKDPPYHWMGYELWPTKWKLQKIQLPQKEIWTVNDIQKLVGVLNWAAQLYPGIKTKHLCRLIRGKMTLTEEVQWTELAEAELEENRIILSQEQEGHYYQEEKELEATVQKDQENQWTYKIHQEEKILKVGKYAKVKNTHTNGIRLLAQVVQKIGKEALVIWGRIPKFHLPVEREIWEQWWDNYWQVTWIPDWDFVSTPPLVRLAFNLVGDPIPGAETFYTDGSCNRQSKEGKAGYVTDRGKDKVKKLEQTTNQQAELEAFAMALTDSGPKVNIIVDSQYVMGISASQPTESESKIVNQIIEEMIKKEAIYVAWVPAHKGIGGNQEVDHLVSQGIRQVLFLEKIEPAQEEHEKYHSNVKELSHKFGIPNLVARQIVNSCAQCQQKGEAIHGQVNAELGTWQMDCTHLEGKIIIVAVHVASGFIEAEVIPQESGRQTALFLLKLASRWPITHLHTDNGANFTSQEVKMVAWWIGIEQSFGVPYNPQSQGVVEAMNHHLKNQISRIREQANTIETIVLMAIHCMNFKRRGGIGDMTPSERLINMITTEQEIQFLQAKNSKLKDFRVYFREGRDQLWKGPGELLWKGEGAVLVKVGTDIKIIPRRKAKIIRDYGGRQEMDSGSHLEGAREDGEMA
method: Ribonuclease H inhibitors of HIV-2 reverse transcriptase, biochemical dose response (AID 367)
measurement.setup: HIV-2 RNase H, FRET RNA/DNA substrate cleavage
The source made the active and inactive calls. The rule behind the calls is not given here.
Parameter call: string, one of t = active, f = inactive

A selection of reference data follows.
compound | assigned.label
Cc1cccc(NCC(=O)N/N=C\c2c(Br)cc(Br)c(O)c2Br)c1 | f
O=C1NC(=S)N(c2ccc(Cl)cc2)C(=O)/C1=C/c1ccco1 | f
Cc1cc(O)c2c(c1O)C(=O)c1cccc(O)c1C2=O | f
CCOc1ccc(C2=CC(=O)C=CC2=O)cc1 | t
O=C1C(Cl)=C(NC(=O)c2ccccc2)C(=O)C(Cl)=C1NC(=O)c1ccccc1 | t
C[N+](C)=c1ccc2nc3c(cc(Nc4ccccc4)c4ccccc43)oc-2c1 | f
O=c1oc2ccccc2c(O)c1/C=C1\C=Nc2ccccc21 | t
O=C1NC(=S)N(c2ccccc2F)C(=O)C1=Cc1ccco1 | t
Cc1ccc(NC(=O)c2c(NC(=O)C(F)(F)F)sc(-c3ccccc3)c2C)c(C)c1 | t
O=C(Nc1sc2c(c1C(=O)Nc1cccc3ccccc13)CCCCC2)c1ccccc1F | f

Task: Call for entry CN(C)CS/C(N)=N/C(O)C(Cl)(Cl)Cl (stereo unspecified) :
Result: t

Task: Call for entry `O=C1c2ccccc2C(=O)N1c1ccc(-c2nc3ccc(N4C(=O)c5ccccc5C4=O)cc3[nH]2)cc1` :
Result: t

Task: Call for entry `CCOc1ccc(NC(=O)c2c(NC(=O)c3ccccc3)sc3c2CCCCC3)cc1` :
Result: f

Task: Call for entry `C[C@@H]1[C@H](O)c2c(c3c(c4c(-c5ccccc5)cc(=O)oc24)OC(C)(C)C=C3)O[C@@H]1C` :
Result: f

Task: Call for entry `O=C1NC(=S)N(c2ccc(Cl)cc2)C(=O)/C1=C/c1ccc(Br)o1` :
Result: t

Task: Call for entry `C=CCn1c(N)c(-c2nc3ccccc3[nH]2)sc1=S` :
Result: t

Task: Call for entry `COc1ccc(/C=C\C(=O)c2c(-c3ccccc3)c3cc(C)ccc3[nH]c2=O)c(OC)c1` :
Result: f

Task: Call for entry `Cc1ccc(-n2c(/C=C/c3ccc(O)c(O)c3)nc3ccccc3c2=O)cc1` :
Result: t

Task: Call for entry CC1C2C=CC1C(c1c3ccc(=O)c(O)c-3oc3c(O)c(O)ccc13)C2C(=O)O (stereo unspecified) :
Result: t

Task: Call for entry `O=S(=O)(O)c1cc(N=[N+]([O-])c2cc(S(=O)(=O)O)c3ccccc3c2)cc2ccccc12` :
Result: f

Task: Call for entry `Cc1cc(-c2ccc(C=C3C(=O)NC(=S)NC3=O)o2)c([N+](=O)[O-])cc1C` :
Result: t

----------
Known IC50 of a selection of molecules
system.name: Gag-Pol polyprotein (Human immunodeficiency virus type 2 subtype A (isolate ROD))
method: Ribonuclease H inhibitors of HIV-2 reverse transcriptase, biochemical dose response (AID 367)
measurement.setup: HIV-2 RNase H, FRET RNA/DNA substrate cleavage

molecule | measurement
CC1=c2c(oc3cc(O)c(Nc4c(C)cc(O)cc4O)c(C)c23)=CC(=O)C1=Nc1c(C)cc(O)cc1O | 2 µM
COc1c(OC)c(O)c2c(=O)cc(-c3ccc(O)c(O)c3)oc2c1OC | 3 µM
Cc1sc(NC(=O)c2cccc([N+](=O)[O-])c2)c(C(N)=O)c1C | 1.8 µM
Cc1c(O)c(Br)c(C)c(O)c1Br (tested in a mixture with another compound) | 0.7 µM
O=[N+]([O-])c1ccc(S(=O)(=O)Cc2ccccc2)c2nonc12 | 5 µM
NCC[Se][Se]CCN | 2 µM
CC(=O)C1=C(O)[C@@]2(O)C(=O)c3c(c(C)c4ccc(C)c(O)c4c3O)C[C@H]2[C@@H](N)C1=O | 4.4 µM
CCOc1cccc(N2C(=O)/C(=C/c3cn(CC(=O)OC)c4ccccc34)C(=O)NC2=S)c1 | 2.8 µM

So, `C=C1C(=O)O[C@@H]2/C=C(\C)CC/C=C(\C(=O)O)CC/C=C(\C)CC[C@H]12` ? Its IC50 was 5.5 µM

----------
system.name: Gag-Pol polyprotein (Human immunodeficiency virus type 2 subtype A (isolate ROD))
method: Ribonuclease H inhibitors of HIV-2 reverse transcriptase, biochemical dose response (AID 367)
measurement.setup: HIV-2 RNase H, FRET RNA/DNA substrate cleavage
Activity calls are given as the source filed them. The rule behind the calls is not given here.
Parameter call: string, one of active, inactive

A selection of reference data follows.
molecule | assigned.label
COc1ccccc1NC(=O)c1c(NC(=O)Cc2ccccc2)sc2c1CCCCC2 | active
Cc1c(Cl)ccc2c1NC(C(=O)O)C1CC=CC21 (stereo not given) | inactive
C=Cc1c(C)c2cc3[nH]c(cc4nc(cc5nc(cc1[nH]2)C(C)=C5CCC(=O)O)C(CCC(=O)O)=C4C)c(C)c3C=C | active
O=C(O)c1c(Br)c(Br)c(Br)c(Br)c1C1c2ccc(O)cc2Oc2cc(O)ccc21 | active
C[C@]12Cc3cnc(-c4ccccc4)nc3C[C@@H]1CC[C@@H]1[C@@H]2CC[C@@]2(C)[C@H]1CC[C@]2(C)O | inactive
CC1Oc2cc3c(-c4c(O)cc(O)c5c(O)c6c(cc45)OC(C)C(C)C6=O)c(O)cc(O)c3c(O)c2C(=O)C1C (stereo not given) | active
O=c1[nH]c(=S)n(-c2ccccc2F)c(O)c1C=C1C=CC=N1 | active
CC(C)c1ccc(O)c(O)c(=O)c1 (tested in a mixture with another compound) | active
Cc1cc(C)c2c(=O)[nH]c(SCC(=O)c3ccc(O)c(O)c3)nc2n1 | active
O=c1c(O)c(-c2cc(O)c(O)c(O)c2)oc2cc(O)cc(O)c12 | active

Task: Call for entry `Cc1ccc(C=C2C(=O)NC(=S)N(c3ccccc3Cl)C2=O)o1` :
Result: inactive

Task: Call for entry `Cc1sc2nc(-c3ccc([N+](=O)[O-])cc3)[nH]c(=O)c2c1C` :
Result: active

Task: Call for entry `COC(=O)c1cc2cc3cc4cc(CC(=O)O)c(C(=O)/C=C(\O)c5ccccc5O)c(OC)c4c(OC)c3c(O)c2c(=O)o1` :
Result: active

Task: Call for entry `Cc1ccc(-c2n[nH]c(=S)n2/N=C/c2ccc(O)c(O)c2O)cc1` :
Result: active
